tgt: full-length beta-Catenin (Uniprot ID P35222) (Homo sapiens (Human)) (UniProt P35222)
Sequence (P35222 2-781 limits assumed): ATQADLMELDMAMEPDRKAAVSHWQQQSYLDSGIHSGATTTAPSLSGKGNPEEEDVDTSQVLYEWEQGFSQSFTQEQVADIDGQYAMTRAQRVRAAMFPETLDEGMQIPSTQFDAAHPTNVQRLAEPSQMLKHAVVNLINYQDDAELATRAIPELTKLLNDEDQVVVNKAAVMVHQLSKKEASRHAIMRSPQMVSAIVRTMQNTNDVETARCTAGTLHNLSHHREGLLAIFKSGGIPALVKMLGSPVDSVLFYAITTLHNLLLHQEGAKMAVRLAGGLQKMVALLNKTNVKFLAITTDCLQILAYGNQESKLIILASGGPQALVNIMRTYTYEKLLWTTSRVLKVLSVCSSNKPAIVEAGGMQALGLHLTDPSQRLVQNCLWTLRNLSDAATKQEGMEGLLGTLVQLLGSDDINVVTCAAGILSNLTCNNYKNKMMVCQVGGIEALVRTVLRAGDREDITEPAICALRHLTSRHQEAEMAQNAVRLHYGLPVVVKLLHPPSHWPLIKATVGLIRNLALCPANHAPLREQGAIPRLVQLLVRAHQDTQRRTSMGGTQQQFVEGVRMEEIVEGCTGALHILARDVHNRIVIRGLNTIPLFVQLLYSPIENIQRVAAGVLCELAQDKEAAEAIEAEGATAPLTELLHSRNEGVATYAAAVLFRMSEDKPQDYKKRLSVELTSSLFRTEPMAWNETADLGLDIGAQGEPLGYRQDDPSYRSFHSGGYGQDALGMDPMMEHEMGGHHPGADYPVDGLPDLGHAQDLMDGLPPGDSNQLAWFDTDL
assay-remarks: fluorescence polarization competition; 10 nM full-length beta-catenin + 10 nM 5FAM-TCF4(10-53) probe; peptide titrated 10 uM to 5 nM
pIC50: −log10 of the molar value. Starred links: 1 amine or outer side, 2 acyl side, 3 side chain; linkers in the order of their positions; H or OH if unused. Positions of bridges follow the written chain, without caps; N, C: chain ends. Non-standard residues stand in square brackets, D forms with d. Primed or numbered codes have the meaning given here. PyrS2″ = (S)-3-amino-1-((pent-4-en-1-yloxy)carbonyl)pyrrolidine-3-carboxylic acid (stapling residue), C=CCCCOC(=O)N1CC[C@@](N[*:1])(C(=O)[*:2])C1; B5(4) = 2,2-bis(4-pentenyl)glycine = 2-amino-2-(pent-4-en-1-yl)hept-6-enoic acid (stitching residue), C=CCCCC(CCCC=C)(N[*:1])C(=O)[*:2]; B5(31) = 2-amino-2-(pent-4-en-1-yl)hept-6-enoic acid (bis-pentenylglycine, stitching residue), C=CCCCC(CCCC=C)(N[*:1])C(=O)[*:2]; B5(3) = 2,2-bis(4-pentenyl)glycine (stitching residue), C=CCCCC(CCCC=C)(N[*:1])C(=O)[*:2]; Bta = N[C@@H](Cc1csc2ccccc12)C(=O)O; Lys(iPr) = CC(C)NCCCC[C@H](N)C(=O)O; αAllylPro = C=CC[C@@]1(C(=O)O)CCCN1; tBuAla = CC(C)(C)C[C@H](N)C(=O)O; 3Thi = N[C@@H](Cc1ccsc1)C(=O)O; Cha = N[C@@H](CC1CCCCC1)C(=O)O; hSer = N[C@@H](CCO)C(=O)O; Aib = CC(C)(N)C(=O)O
endpoint-label: pIC50

Ac-[αAllylPro]D[tBuAla][B5(31)]NTA[Aib]FN[PyrS2″][3Thi][Bta]Q-NH2 (staple 1-4, 4-11) [I-2339] : 5.55
Ac-[αAllylPro]N[Cha][B5(4)]DQ[Lys(iPr)]AFL[PyrS2″]F[Bta]H-NH2 (staple 1-4, 4-11) [I-2351] : 6.73

I: Ac-[αAllylPro]N[Cha][B5(4)]DQ[hSer]AFL[PyrS2″]F[Bta]Q-NH2 (staple 1-4, 4-11; also: later eluting isomer composition (HPLC), configuration not given here) [I-2355]
II: Ac-[αAllylPro]N[Cha][B5(3)]DQ[Lys(iPr)]AFL[PyrS2″]F[Bta]K-NH2 (staple 1-4, 4-11) [I-2350]
Request: Pick the one with the larger pIC50: I vs II Return value: the label identifying the chosen record.
Result: II
